FYI, the data here is from PubChem BioAssay AID248.

Reported T/C is given for each of the following compounds.
# Test system: L1210 leukemia ip in BDF1 mice, survival T/C
# Procedure details: NCI In Vivo Anticancer Drug Screen. Data for tumor model L1210 Leukemia (intraperitoneal) in B6D2F1 (BDF1) mice
# Particulars: endpoint: mean survival time; dose: 400.0 mg/kg/injection; schedule: Q01DX009 (ip); vehicle: gum acacia; higher = longer survival
Inconclusive results and toxic doses are left out.

Consider the worked cases shown below.
>  <Compound>
C(=NC(c1ccccc1)(c1ccccc1)c1ccccc1)=NC(c1ccccc1)(c1ccccc1)c1ccccc1

>  <T/C>
88 % of control

$$$$
>  <Compound>
O=C(Nc1ccc(Nc2ccccc2)cc1)c1ccc(F)cc1

>  <T/C>
94 % of control

$$$$
>  <Compound>
O=C(O)Cc1c(O)ccc2ccccc12

>  <T/C>
98 % of control

$$$$

In: Which T/C is reported with L1210 leukemia ip in BDF1 mice, survival T/C for this entry: CCc1cccc(CC)c1N1C(=O)CC(Sc2ccccc2N)C1=O (stereo not given) ?
Out: 98 % of control

In: Similarly, S=C1NC(c2cccc(Cl)c2)N2C(=S)NC(c3cccc(Cl)c3)N12 (stereo not given) ?
Out: 87 % of control

----------
# Tested on: L1210 leukemia ip in BDF1 mice, survival T/C
# Procedure details: NCI In Vivo Anticancer Drug Screen. Data for tumor model L1210 Leukemia (intraperitoneal) in B6D2F1 (BDF1) mice
# Particulars: endpoint: mean survival time; dose: 400.0 mg/kg/injection; schedule: Q01DX001 (ip); vehicle: saline with Tween-80; higher = longer survival
Toxic doses and inconclusive results are not listed.
Readout type: T/C

>  <Compound>
CC(=O)NC1C(CO)OC(n2cnc3c(N)nc(Cl)nc32)C1O (stereo not drawn)

>  <T/C>
100 % of control

$$$$

In: // query T/C value for entry Cc1ccc(S(=O)(=O)OCC2OCOC2C2OCOC2C)cc1 (stereo not drawn)
Out: 97 % of control

In: Similarly, CCCCCCCCCCCCCCCCC ?
Out: 97 % of control

In: Similarly, C1CCC(CCC(CCCC2CCCC2)CCC2CCCCC2)CC1 ?
Out: 102 % of control

In: Similarly, CCOC(=O)N/N=C(/C)c1ccc(C)cc1 ?
Out: 102 % of control

In: Similarly, CC(=O)NC1C(OCc2ccccc2)OC(COC(c2ccccc2)(c2ccccc2)c2ccccc2)C(OS(=O)(=O)c2ccc(C)cc2)C1OCc1ccccc1 (stereo not drawn) ?
Out: 100 % of control

In: Similarly, O=C(N/N=C/c1ccco1)c1ccccc1 ?
Out: 114 % of control

In: Similarly, C/C(Cl)=C/C(=O)O ?
Out: 96 % of control

----------
Reported T/C is given for each of the following molecules.
# System: L1210 leukemia ip in BDF1 mice, survival T/C
# Procedure details: NCI In Vivo Anticancer Drug Screen. Data for tumor model L1210 Leukemia (intraperitoneal) in B6D2F1 (BDF1) mice
# Particulars: endpoint: mean survival time; dose: 200.0 mg/kg/injection; schedule: Q01DX001 (ip); vehicle: Klucel (hydroxypropylcellulose) (HPC); higher = longer survival
Inconclusive results and toxic doses are left out.

>  <Molecule>
O=c1c(N=Nc2ccc(Cl)cc2)c(O)n(-c2ccc(Cl)cc2)c(=S)n1-c1ccccc1

>  <Recorded value>
100 % of control

$$$$
>  <Molecule>
O=C(O)c1cccc(NC(C(=O)c2ccccc2)c2ccccc2)c1 (configuration not stated)

>  <Recorded value>
102 % of control

$$$$
>  <Molecule>
COc1ccccc1-n1c(O)c(N=Nc2ccc(C)cc2)c(=O)n(-c2ccccc2)c1=S

>  <Recorded value>
97 % of control

$$$$
>  <Molecule>
O=C(Nc1ccc([N+](=O)[O-])cc1Cl)SCc1ccccc1

>  <Recorded value>
96 % of control

$$$$
>  <Molecule>
CCCCCCCCCCCCCCCCCC/C(CC)=N/Nc1ccc([N+](=O)[O-])cc1[N+](=O)[O-]

>  <Recorded value>
103 % of control

$$$$

In: // query T/C value for entry Nc1ncnc2c1c(S(=O)(=O)O)cn2C1OC(CO)C(O)C1O (configuration not stated)
Out: 93 % of control

In: Similarly, CN(C)c1ccc(/C=[N+](\[O-])c2cccc(Cl)c2)cc1 ?
Out: 97 % of control

----------
# System: L1210 leukemia ip in BDF1 mice, survival T/C
# Procedure details: NCI In Vivo Anticancer Drug Screen. Data for tumor model L1210 Leukemia (intraperitoneal) in B6D2F1 (BDF1) mice
# Particulars: endpoint: mean survival time; dose: 400.0 mg/kg/injection; schedule: Q04DX003 (ip); vehicle: saline with Tween-80; higher = longer survival
Inconclusive results and toxic doses are left out.
Reported T/C is given for each of the following compounds.

>  <Compound>
Cc1ccc(S(=O)(=O)N/N=C/c2cccs2)cc1

>  <T/C>
109 % of control

$$$$
>  <Compound>
O=C1C=CC(=O)N1CO (tested in a mixture with another compound)

>  <T/C>
91 % of control

$$$$
>  <Compound>
Cc1ccc(S(=O)(=O)NC(=O)NCCC(C)C)cc1

>  <T/C>
96 % of control

$$$$
>  <Compound>
Nc1nc(N)c(-c2ccc(Cl)c(Cl)c2)c(CO)n1

>  <T/C>
117 % of control

$$$$
>  <Compound>
Cc1csc(C)n1

>  <T/C>
107 % of control

$$$$

In: // query T/C value for entry CCCCCC(=O)NCC(=O)O
Out: 94 % of control

In: Similarly, Cc1c(Cl)cccc1NC(=O)N(C)Cc1ccccc1 ?
Out: 101 % of control

In: Similarly, CC(=O)c1ccccc1[N+](=O)[O-] ?
Out: 94 % of control

In: Similarly, O=C(CCCCCl)Nc1cccc2c1C(=O)c1c(c(O)c3ccccc3c1O)C2=O ?
Out: 90 % of control

In: Similarly, N#CC(C#N)C(=O)c1ccccc1 ?
Out: 89 % of control

In: Similarly, CCOC(=O)c1ccc(NC(=S)Nc2ccc(C(=O)OCC)cc2)cc1 ?
Out: 94 % of control

In: Similarly, CCOC(=O)N1CCC2(CC1)NC(=O)c1ccccc1N2 ?
Out: 96 % of control

In: Similarly, COc1ccc(Cc2cc3cc(OC)c(OC)cc3cn2)cc1OC ?
Out: 90 % of control

In: Similarly, c1ccc(-c2cnc(-c3ccccc3)[nH]2)cc1 ?
Out: 100 % of control

In: Similarly, CC(=O)OC1CCSCC1 ?
Out: 103 % of control

In: Similarly, CCCCOB(OCCCC)C(C)C(C#N)C#N (configuration not stated) ?
Out: 93 % of control

In: Similarly, O=C(CC(O)(C(F)(F)F)C(F)(F)F)c1ccccc1Cl ?
Out: 101 % of control

In: Similarly, Nc1ccc(S(=O)(=O)Nc2ccc(N(CCCl)CCCl)cc2)cc1 ?
Out: 102 % of control

----------
# Test system: L1210 leukemia ip in BDF1 mice, survival T/C
# Procedure details: NCI In Vivo Anticancer Drug Screen. Data for tumor model L1210 Leukemia (intraperitoneal) in B6D2F1 (BDF1) mice
# Particulars: endpoint: mean survival time; dose: 50.0 mg/kg/injection; schedule: Q01DX009 (ip); vehicle: Klucel (hydroxypropylcellulose) (HPC); higher = longer survival
Inconclusive results and toxic doses are left out.
Readout type: T/C

Consider the worked cases shown below.
>  <Compound>
O=C1CC2c3ccccc3C1C1C(=O)OC(=O)C21 (centres undefined)

>  <T/C>
105 % of control

$$$$
>  <Compound>
O=C(CCN1CC1)Nc1ccccc1

>  <T/C>
102 % of control

$$$$
>  <Compound>
O=[N+]([O-])c1ccc(N=N/C(Cc2ccccc2)=N\Nc2ccccc2)cc1

>  <T/C>
90 % of control

$$$$
>  <Compound>
Cc1cc(NC(=S)Nc2ccccc2)c(NC(=S)Nc2ccccc2)cc1C

>  <T/C>
96 % of control

$$$$
>  <Compound>
COc1ccc(C(CC(=O)c2ccccc2)Sc2ccccc2N)cc1OC (centres undefined)

>  <T/C>
97 % of control

$$$$
>  <Compound>
CCOC(=O)c1cc(Br)c(O)c(Br)c1

>  <T/C>
95 % of control

$$$$
>  <Compound>
O=C(Oc1ccc2ccc(=O)oc2c1)N(CCCl)CCCl

>  <T/C>
97 % of control

$$$$
>  <Compound>
OCCC[P+](c1ccccc1)(c1ccccc1)c1ccccc1

>  <T/C>
100 % of control

$$$$

In: // query T/C value for entry O=C(O)C1CCCN(C(=O)OCc2ccccc2)C1 (centres undefined)
Out: 97 % of control

----------
# System: L1210 leukemia ip in BDF1 mice, survival T/C
# Procedure details: NCI In Vivo Anticancer Drug Screen. Data for tumor model L1210 Leukemia (intraperitoneal) in B6D2F1 (BDF1) mice
# Particulars: endpoint: mean survival time; dose: 200.0 mg/kg/injection; schedule: Q04DX002 (ip); vehicle: saline with Tween-80; higher = longer survival
Toxic doses and inconclusive results are not listed. Square brackets hold non-standard residues; d marks the D form. Peptide text beside a SMILES is read from it. ξ: configuration not given here. ξI = CCC(C)C(N)C(=O)O
Reported T/C is given for each of the following compounds.

>  <Compound>
O=C(O)c1ccc2c(c1)C(=O)c1ccccc1C2=O

>  <Readout type>
T/C

>  <Recorded value>
99 % of control

$$$$
>  <Compound>
CCCCCCCCC(CO)(CCCCCCC)C(=O)O (stereo unspecified)

>  <Readout type>
T/C

>  <Recorded value>
88 % of control

$$$$
>  <Compound>
IC1CCC2OC1CCC2I (stereo unspecified)

>  <Readout type>
T/C

>  <Recorded value>
94 % of control

$$$$
>  <Compound>
O=C(N/N=C/c1ccco1)c1ccccc1

>  <Readout type>
T/C

>  <Recorded value>
97 % of control

$$$$
>  <Compound>
CCCCCCCCCCCOP(=O)(OCC)OCC

>  <Readout type>
T/C

>  <Recorded value>
95 % of control

$$$$

In: // query T/C value for entry O=C(O)COc1ccc(C2(c3ccc(OCC(=O)O)cc3)CC3CC2C2CCCC32)cc1 (stereo unspecified) (tested in a mixture with another compound)
Out: 93 % of control

In: Similarly, CSc1cccc(NC2=NCCO2)c1 ?
Out: 88 % of control

In: Similarly, O=C(c1ccccc1)c1[nH]c2ccccc2c1-c1ccccc1 ?
Out: 107 % of control

In: Similarly, CCC(C)C(NC(=O)CN)C(=O)O (stereo unspecified) (H-Gly-[ξI]-OH) ?
Out: 102 % of control

In: Similarly, O=C(CCl)N1C(=O)CC(c2ccccc2)C1=O (stereo unspecified) ?
Out: 97 % of control

In: Similarly, CCOc1cc(-c2ccc(OC)cc2)nc(N)n1 ?
Out: 97 % of control

In: Similarly, O=C(Nc1ccc(Cl)c(Cl)c1)c1ccc(Cl)cc1 ?
Out: 95 % of control
